Test system: LIMK2
Conditions: concentration: 1 μM,replicates: in singlicate; n = 1;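 note: KINOMEscan kinase panel screen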
measured.parameter: %Inh (%)

| compound | target.desc | measured.parameter | display.unit | reported.result |
| --- | --- | --- | --- | --- |
| Nc1nccc(-c2ccc3c(N)n[nH]c3c2)n1 | LIMK2 | %Inh | % | 12 |
| Cc1cccc(-c2nc(Nc3ccncc3)c3sccc3n2)n1 | LIMK2 | %Inh | % | 5 |
| CN(c1cccc(CNc2nc(Nc3ccc4c(c3)CC(=O)N4)ncc2C(F)(F)F)c1)S(C)(=O)=O | LIMK2 | %Inh | % | 0 |
| COC(=O)c1cccc(NC(=O)NC2CCN(c3ccnc(Nc4cc(OC)c(OC)c(OC)c4)n3)C2)c1 (stereo not drawn) | LIMK2 | %Inh | % | 35 |
| N#Cc1cccc(C(=O)NC2CCN(c3ccnc(Nc4ccc(F)cc4)n3)C2)c1 (stereo not drawn) | LIMK2 | %Inh | % | 0 |
| O=C(NCC1CC1)c1ccc(-c2cc(C(=O)NC3CC3)ccc2F)cc1 | LIMK2 | %Inh | % | 0 |
| O=C(Nc1cccc(Oc2ccc3nccn3n2)c1)Nc1cccc(C(F)(F)F)c1 | LIMK2 | %Inh | % | 25 |
| COc1cc2c(Nc3ccc(NC(=O)c4ccccc4)cc3)ncnc2cc1OCCCN1CCOCC1 | LIMK2 | %Inh | % | 0 |
| O=C(Nc1ccccc1)c1cccc(Oc2ccc3nccn3n2)c1 | LIMK2 | %Inh | % | 23 |
| CCN1CCN(CCCC(=O)Nc2n[nH]c3nc(-c4ccc(O)cc4)c(Br)cc23)CC1 | LIMK2 | %Inh | % | 0 |
| FC(F)(F)c1cc(Br)cc(Nc2nccc(-c3cnn4ncccc34)n2)c1 | LIMK2 | %Inh | % | 0 |
| CC(C)c1nc(-c2cccc(NS(=O)(=O)c3ccccc3)c2)c(-c2ccnc(Nc3ccc4c(c3)CN(C)CC4)n2)s1 | LIMK2 | %Inh | % | 100 |
| Cc1ccn2nc(-c3ccc(F)cc3)c(-c3ccncc3)c2c1.Cl | LIMK2 | %Inh | % | 0 |
| COc1cccc(CNC(=O)NC2CCN(c3ccnc(Nc4cc(OC)c(OC)c(OC)c4)n3)C2)c1 (stereo not drawn) | LIMK2 | %Inh | % | 82 |
| COc1cccc(OC)c1C(=O)Nc1cccc(-c2nn3ccccc3c2-c2ccnc(Nc3cccc(F)c3)n2)c1 | LIMK2 | %Inh | % | 15 |
| Cc1nnc(-c2ccc3occ(-c4ccc(S(C)=O)cc4)c3n2)o1 (stereo not drawn) | LIMK2 | %Inh | % | 0 |
| Cc1ccc(CC(=O)N2CCc3cc(-c4cn(C)c5ncnc(N)c45)ccc32)cc1 | LIMK2 | %Inh | % | 0 |
| COc1cc2nccc(Nc3ccc(Oc4ccccc4)cc3)c2cc1OC.Cl | LIMK2 | %Inh | % | 14 |

====

The reader will find reported %Inh values listed item by item below.
Tested on: p38-alpha
Construct: gene MAPK14
Details: concentration: 1 μM,replicates: in singlicate; n = 1

| compound | target.desc | display.unit | %Inh |
| --- | --- | --- | --- |
| Cc1ccn2nc(-c3ccc(F)cc3)c(-c3ccncc3)c2c1.Cl [GW457859] | p38-alpha | % | 99.7 |
| Cc1n[nH]c2cc(Nc3ccnc(Nc4cccc(CN5CCOCC5)c4)n3)ccc12 [GW682569] | p38-alpha | % | 11 |
| C[C@@H]1CNc2c(sc3ccc4nc(-c5ccc(O)cc5)ccc4c23)C(=O)N1 | p38-alpha | % | 5 |
| Cc1ccc(C(=O)Nc2ccc(Oc3ccc4nc(NC(=O)C5CC5)cn4c3)c(F)c2)c(=O)n1-c1ccccc1 | p38-alpha | % | 0 |
| Nc1nccc(-c2ccc3c(N)n[nH]c3c2)n1 [GSK1034945] | p38-alpha | % | 0 |

====

Tested on: ERBB3
Settings: concentration: 1 μM,replicates: in singlicate; n = 1
The reader will find reported %Inh values listed item by item below.

| compound | %Inh (%) |
| --- | --- |
| CCn1c(-c2nonc2N)nc2cncc(Br)c21 | 43 |
| CN1CCN(CCCNc2nccc(-c3c(-c4ccc(F)cc4)nn4cc(C(N)=O)ccc34)n2)CC1 | 0 |
| CCOC(=O)N1CCC(n2cnc(-c3ccc(F)cc3)c2-c2ccnc(N)n2)CC1 | 21 |
| COc1cccc(OC)c1C(=O)Nc1cccc(-c2nn3ccccc3c2-c2ccnc(Nc3cccc(F)c3)n2)c1 | 0 |
| Cc1ccc(Nc2ccnc(Nc3ccc4c(c3)CS(=O)(=O)C4)n2)cc1O.Cl | 34 |
| O=C(NCC1CC1)c1ccc(-c2cc(C(=O)NC3CC3)ccc2F)cc1 | 0 |
| NC(=O)c1ccc(-c2cc3ncnc(SCC(=O)O)c3s2)cc1 | 0 |
| Cc1ccc(C(=O)Nc2ccc(Oc3ccc4nc(NC(=O)C5CC5)cn4c3)c(F)c2)c(=O)n1-c1ccccc1 | 43 |
| C[C@@H]1CCN(C(=O)N2CCCC2)C[C@@H]1N(C)c1ncnc2[nH]ccc12 | 0 |
| C[C@@H](Oc1cc(-n2cnc3ccc(-c4ccncc4)cc32)sc1C(N)=O)c1ccccc1Cl | 0 |
| Cc1ccc(CC(=O)N2CCc3cc(-c4cn(C)c5ncnc(N)c45)ccc32)cc1 | 10 |
| Cn1ccc2ncnc(Oc3ccc(NC(=O)Nc4cncc(C(F)(F)F)c4)c(Cl)c3)c21 | 0 |
| Cn1ccc2ncnc(Oc3ccc(NC(=O)Nc4ccnc(C(F)(F)F)c4)c(Cl)c3)c21 | 0 |
| FC(F)(F)c1cc(Br)cc(Nc2nccc(-c3cnn4ncccc34)n2)c1 | 1 |
| O=C(Nc1cccc(C(F)(F)F)c1)c1cccc(Oc2ccc3nccn3n2)c1 | 40 |
| CC(C)S(=O)(=O)N1CCN(Cc2ccc3c(c2)nc(NC(=O)c2ccsc2)n3C[C@H](O)c2ccccc2)CC1 | 0 |
| COc1ccc(Nc2nccc(N3CCC(NC(=O)c4cccc(C#N)c4)C3)n2)cc1 (stereo not drawn) | 0 |
| C[C@@H](Oc1cc(-n2cnc3cc(-c4cnn(C)c4)ccc32)sc1C(N)=O)c1ccccc1Cl | 0 |

====

Tested on: DYRK1A
Conditions: concentration: 1 μM,replicates: in singlicate; n = 1
measured.parameter: %Inh (%)

| compound | measured.parameter | reported.result |
| --- | --- | --- |
| Cn1ccc2ncnc(Oc3ccc(NC(=O)Nc4cccc(C(F)(F)F)c4)c(Cl)c3)c21 | %Inh | 0 |
| CCN1CCN(CCCC(=O)Nc2n[nH]c3nc(-c4ccc(O)cc4)c(Br)cc23)CC1 [SB-731579] | %Inh | 38 |
| COc1cc(Nc2nccc(N3CCC(NC(=O)c4cccc(C#N)c4)C3)n2)cc(OC)c1OC (centres unmarked) [GSK1379751] | %Inh | 0 |
| O=C1NCCc2[nH]c(-c3ccncc3)cc21 | %Inh | 99.7 |
| CSc1nccc(-c2c(-c3ccc(F)cc3)ncn2CCCN2CCOCC2)n1.Cl [SB-217146] | %Inh | 0 |
| CN(c1ccc2c(c1)nc(NCc1ccc(F)cc1)n2C)c1ccnc(Nc2ccc(CS(C)(=O)=O)cc2)n1.Cl [GW813244] | %Inh | 0 |
| Cc1ccc2c(-c3ccnc(Nc4ccc(C(F)(F)F)cc4)n3)cnn2n1 [GW819776] | %Inh | 37 |
| C[C@@H](Oc1cc(-n2cnc3cc(-c4cnn(C)c4)ccc32)sc1C(N)=O)c1ccccc1Cl [GSK580432] | %Inh | 18 |

====

System: CDK5
Details: concentration: 1 μM,replicates: in singlicate; n = 1
measured.parameter: %Inh (%)

| molecule | target.desc | display.unit | reported.result |
| --- | --- | --- | --- |
| CC(C)c1nc(-c2cccc(NS(=O)(=O)c3ccccc3)c2)c(-c2ccnc(Nc3ccc4c(c3)CN(C)CC4)n2)s1 | CDK5 | % | 87 |
| CC(C(=O)NC1CCN(c2ccnc(Nc3ccc(F)cc3)n2)C1)c1ccc(Cl)cc1 (centres unmarked) | CDK5 | % | 0 |
| CC(=O)Nc1ccc(-c2cc3ncnc(SCC(=O)O)c3s2)cc1 | CDK5 | % | 14 |
| COC(=O)c1cccc(NC(=O)NC2CCN(c3ccnc(Nc4cc(OC)c(OC)c(OC)c4)n3)C2)c1 (centres unmarked) | CDK5 | % | 0 |
| Cn1ccc2ncnc(Oc3ccc(NC(=O)Nc4cncc(C(F)(F)F)c4)c(Cl)c3)c21 | CDK5 | % | 0 |
| COc1cc(Nc2nccc(N3CCC(NC(=O)c4cccc(C#N)c4)C3)n2)cc(OC)c1OC (centres unmarked) | CDK5 | % | 0 |
| COc1cccc(OC)c1C(=O)Nc1cccc(-c2nn3ccccc3c2-c2ccnc(Nc3cccc(F)c3)n2)c1 | CDK5 | % | 21 |
| c1ccc(Oc2ccc(Nc3ccnc4ccc(-c5ccccn5)cc34)cc2)cc1 | CDK5 | % | 93.1 |
| CCn1c(-c2nonc2N)nc2cncc(CNC3CCNCC3)c21.Cl | CDK5 | % | 0 |
| COC(=O)c1cccc(NC(=O)NC2CCN(c3ccnc(NCc4ccc(F)cc4)n3)CC2)c1 | CDK5 | % | 2 |
| CS(=O)c1ccc(-c2coc3ccc(-c4n[nH]c(=O)o4)cc23)cc1 (centres unmarked) | CDK5 | % | 0 |
| COc1ccc(Nc2nccc(N3CCC(NC(=O)c4cccc(C#N)c4)C3)n2)cc1 (centres unmarked) | CDK5 | % | 7 |
| COc1cccc(C2=C(Nc3cccc(Cl)c3)C(=O)NC2=O)c1 | CDK5 | % | 0 |
| CS(=O)(=O)Nc1ccc(-c2ccnc3[nH]ccc23)cc1 | CDK5 | % | 0 |
| Cl.c1ccc(Oc2ccc(Nc3ccnc4cc(-c5ccc(CN6CCNCC6)o5)ccc34)cc2)nc1 | CDK5 | % | 0 |
| CN(c1ccc2c(c1)nc(NCc1ccc(F)cc1)n2C)c1ccnc(Nc2ccc(CS(C)(=O)=O)cc2)n1.Cl | CDK5 | % | 0 |
| O=c1[nH]cc(-c2ccc(O)cc2)c2sc(-c3ccncc3)cc12 | CDK5 | % | 0 |
| COc1cc2nccc(Nc3ccc(Oc4ccccc4)cc3)c2cc1OC.Cl | CDK5 | % | 0 |
| Cl.Cl.NC[C@H](CC1CCCCC1)NC(=O)c1ccc(-c2ccnc3[nH]ccc23)s1 | CDK5 | % | 0 |
| CC(=O)c1c(-c2ccncc2)[nH]c(-c2ccncc2)c1C | CDK5 | % | 0 |
| CCOC(=O)N1CCC(n2cnc(-c3ccc(F)cc3)c2-c2ccnc(N)n2)CC1 | CDK5 | % | 0 |
| COc1cccc(CNC(=O)NC2CCN(c3ccnc(Nc4cc(OC)c(OC)c(OC)c4)n3)C2)c1 (centres unmarked) | CDK5 | % | 0 |
| COC(=O)Nc1nc2cc(Oc3ccc(NC(=O)Nc4cc(C(F)(F)F)ccc4Cl)cc3)ccc2[nH]1.Cl | CDK5 | % | 0 |
| O=C1NCCc2[nH]c(-c3ccncc3)cc21 | CDK5 | % | 29 |
| CCN1CCN(CCCC(=O)Nc2n[nH]c3nc(-c4ccc(O)cc4)c(Br)cc23)CC1 | CDK5 | % | 0 |
| COc1cc2ncn(-c3cc(OCC4CCCCC4)c(C(N)=O)s3)c2cc1OC | CDK5 | % | 0 |
| Cc1ccc(C(=O)Nc2ccc(Oc3ccc4nc(NC(=O)C5CC5)cn4c3)c(F)c2)c(=O)n1-c1ccccc1 | CDK5 | % | 0 |
| Cc1ccc(Nc2ccnc(Nc3ccc4c(c3)CS(=O)(=O)C4)n2)cc1O.Cl | CDK5 | % | 95 |
| Cn1cc(-c2cccc3c(N)c(C(N)=O)nnc23)cn1 | CDK5 | % | 3 |
| O=C(Nc1cccc(C(F)(F)F)c1)c1cccc(Oc2ccc3nccn3n2)c1 | CDK5 | % | 0 |
| CC(=O)Nc1nc2cnc(Nc3cc(NC(=O)c4cccc(CC(C)(C)C#N)c4)ccc3C)nc2s1 | CDK5 | % | 14 |
| CCNCC(Cc1ccccc1)NC(=O)c1cc(Br)c(-c2ccnc3[nH]ccc23)s1.Cl.Cl (centres unmarked) | CDK5 | % | 0 |
| CNC(=O)c1ccccc1Nc1nc(Nc2cccc(CS(C)(=O)=O)c2)ncc1C.O=CO | CDK5 | % | 0 |
| Cn1ccc2ncnc(Oc3ccc(NC(=O)Nc4cnn(C(C)(C)C)c4)c(Cl)c3)c21 | CDK5 | % | 2 |
| O=C(Nc1ccccc1)c1cccc(Oc2ccc3nccn3n2)c1 | CDK5 | % | 0 |
